Exercise: state measured pKd for each of the binders provided.
- Tested target: human IL-13 R130Q variant (R110Q of the mature chain) (human) (UniProt P35225)
- Procedure summary: Biacore SPR, mAb from CHO
Give bare numbers, as −log10 of the molar value.

mAb Lc-2B03 + Hc2 T31S, M34S, M100L, V106I (antibody, human IgG1, V domains shown) VH: QVTLKESGPVLVKPTETLTLTCTVSGFSLSSYGSGVGWIRQPPGKALEWLAHIWWDDVKRYNPALKSRLTISKDTSKSQVVLTMTNMDPVDTATYYCARLGSDYDIWFDYWGQGTLVTVSS VL: EIVLTQSPATLSLSPGERATLSCRASKSISKYLAWYQQKPGQAPRLLIYSGSTLQSGIPARFSGSGSGTDFTLTISSLEPEDFAVYYCQQHDYPYTFGQGTKLEIKR = 10.68
mAb Lc-2B03 + Hc2 M34V, M100L (antibody, human IgG1, V domains shown) VH: QVTLKESGPVLVKPTETLTLTCTVSGFSLSTYGVGVGWIRQPPGKALEWLAHIWWDDVKRYNPALKSRLTISKDTSKSQVVLTMTNMDPVDTATYYCARLGSDYDVWFDYWGQGTLVTVSS VL: EIVLTQSPATLSLSPGERATLSCRASKSISKYLAWYQQKPGQAPRLLIYSGSTLQSGIPARFSGSGSGTDFTLTISSLEPEDFAVYYCQQHDYPYTFGQGTKLEIKR = 10.72

From here, focus on the item given below.
Q: Param item = mAb Lc-2B03 + Hc2 M34Q, M100L (antibody, human IgG1, V domains shown) VH: QVTLKESGPVLVKPTETLTLTCTVSGFSLSTYGQGVGWIRQPPGKALEWLAHIWWDDVKRYNPALKSRLTISKDTSKSQVVLTMTNMDPVDTATYYCARLGSDYDVWFDYWGQGTLVTVSS VL: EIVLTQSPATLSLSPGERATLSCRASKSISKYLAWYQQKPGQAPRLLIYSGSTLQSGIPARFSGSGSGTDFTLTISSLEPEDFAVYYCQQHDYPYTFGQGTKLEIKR ; retrieve measured pKd.
A: 10.60
